Tested on: Escherichia coli
Assay: Antimicrobial activity against Escherichia coli DH52 after 24 hrs by microbroth dilution method
Assay type: functional
Details: DH52, 24 h
This listing pairs compounds with measured MIC.
State the answer as a number, implicitly in µg/mL.

Look up MIC: CCCCCCCCn1c(Cn2cc(F)c(=O)[nH]c2=O)nc2ccccc21
64

# get_value(readout='MIC', item= CCCCCCCCn1c(=O)c(F)cn(Cc2nc3ccccc3n2CCCCCCCC)c1=O )
512

Suppose we examine the compound O=c1c(F)cn(Cc2nc3ccccc3n2Cc2ccccc2F)c(=O)n1Cc1ccccc1F ; what MIC value has been reported?
128

# lookup: MIC of O=c1[nH]c(=O)n(Cc2nc3ccccc3[nH]2)cc1F
64

Field request: MIC | item: COc1ccc(Cn2c(=O)c(F)cn(Cc3nc4ccccc4n3Cc3ccc(OC)cc3)c2=O)cc1
128

If you can, please state the reported MIC value of O=c1c(F)cn(Cc2nc3ccccc3n2Cc2cccc(F)c2)c(=O)n1Cc1cccc(F)c1 .
2

---

Tested on: Salmonella typhi
Assay: Antimicrobial activity against Bacillus typhi after 24 hrs by microbroth dilution method
Type: functional, Salmonella enterica subsp. enterica serovar Typhi
Conditions: Salmonella enterica
Reported MIC values follow for various compounds
Give the number; µg/mL is assumed, so skip it.

Any idea what MIC came out for O=c1c(F)cn(Cc2nc3ccccc3n2Cc2cccc(Cl)c2)c(=O)n1Cc1cccc(Cl)c1 on Salmonella typhi?
64

Please tell me: MIC of O=c1[nH]c(=O)n(Cc2nc3ccccc3[nH]2)cc1F , system Salmonella typhi?
32

Give MIC (Salmonella typhi) of the following compound: O=c1c(F)cn(Cc2nc3ccccc3n2Cc2ccc(Cl)cc2)c(=O)n1Cc1ccc(Cl)cc1
512

Lab note: need MIC for COc1ccc(Cn2c(=O)c(F)cn(Cc3nc4ccccc4n3Cc3ccc(OC)cc3)c2=O)cc1 on Salmonella typhi, anyone have it?
64

---

System: Escherichia coli
Assay: Antimicrobial activity against Escherichia coli DH52 after 24 hrs by microbroth dilution method
Assay type: functional
Settings: DH52, 24 h
// values below are reported MIC

Which MIC is reported for this compound? CCCCCCCCCCCCn1c(=O)c(F)cn(Cc2nc3ccccc3n2CCCCCCCCCCCC)c1=O
512 µg/mL

# lookup: MIC of CCn1cc(C(=O)O)c(=O)c2cc(F)c(N3CCNCC3)cc21
1 µg/mL

I have this compound here, CCn1c(=O)c(F)cn(Cc2nc3ccccc3n2CC)c1=O , and I need its recorded MIC.
32 µg/mL

Quick one: MIC of CCCCCn1c(=O)c(F)cn(Cc2nc3ccccc3n2CCCCC)c1=O ?
512 µg/mL

Which value of MIC has been reported for O=c1c(F)cn(Cc2nc3ccccc3n2Cc2cccc(Cl)c2)c(=O)n1Cc1cccc(Cl)c1 in the records?
16 µg/mL

May I ask what MIC has been recorded for CCCn1c(Cn2cc(F)c(=O)[nH]c2=O)nc2ccccc21 ?
64 µg/mL

Fill in: MIC of O=c1[nH]c(=O)n(Cc2nc3cc(F)ccc3[nH]2)cc1F is ___
32 µg/mL

What measured MIC goes with CCn1c(Cn2cc(F)c(=O)[nH]c2=O)nc2ccccc21 ?
8 µg/mL

Need MIC, item O=c1c(F)cn(Cc2nc3ccccc3n2Cc2ccc(Cl)cc2)c(=O)n1Cc1ccc(Cl)cc1
> 512 µg/mL

So what's the measured MIC for this one? O=c1[nH]c(=O)n(Cc2nc3ccccc3n2Cc2cccc(F)c2)cc1F
2 µg/mL

---

Tested on: Salmonella typhi
Experiment: Antimicrobial activity against Bacillus typhi after 24 hrs by microbroth dilution method
Type: functional, Salmonella enterica subsp. enterica serovar Typhi
Conditions: Salmonella enterica
Measured log10 of MIC accompanies every entry in the list below.
Field: value | Transform: log10 | Quantity: MIC | Unit: mg/L

COMPOUND	MEAS VALUE
CCCCCCCCn1c(Cn2cc(F)c(=O)[nH]c2=O)nc2ccccc21	2.71
O=c1[nH]c(=O)n(Cc2nc3ccccc3n2Cc2cccc(F)c2)cc1F	2.11
CCCCCCCCn1c(=O)c(F)cn(Cc2nc3ccccc3n2CCCCCCCC)c1=O	2.71
O=c1c(F)cn(Cc2nc3ccccc3n2Cc2ccccc2)c(=O)n1Cc1ccccc1	2.11
CCCCCn1c(=O)c(F)cn(Cc2nc3ccccc3n2CCCCC)c1=O	2.71
CCCn1c(Cn2cc(F)c(=O)[nH]c2=O)nc2ccccc21	1.81
O=c1c(F)cn(Cc2nc3ccccc3n2Cc2ccc(F)cc2)c(=O)n1Cc1ccc(F)cc1	2.71
O=c1c(F)cn(Cc2nc3ccccc3n2Cc2ccc([N+](=O)[O-])cc2)c(=O)n1Cc1ccc([N+](=O)[O-])cc1	1.51
CCn1c(Cn2cc(F)c(=O)[nH]c2=O)nc2ccccc21	1.51
O=c1[nH]c(=O)n(Cc2nc3cc(F)ccc3[nH]2)cc1F	1.51

What value of measured log10 of MIC is listed for O=c1c(F)cn(Cc2nc3ccccc3n2Cc2ccccc2Cl)c(=O)n1Cc1ccccc1Cl ?
2.71

Which log10 of MIC value belongs to O=c1c(F)cn(Cc2nc3ccccc3n2Cc2cccc(F)c2)c(=O)n1Cc1cccc(F)c1 ?
0.90

Please give the measured log10 of MIC for this compound: O=c1c(F)cn(Cc2nc3ccccc3n2Cc2ccccc2F)c(=O)n1Cc1ccccc1F
2.71

Which measured log10 of MIC value corresponds to CCn1cc(C(=O)O)c(=O)c2cc(F)c(N3CCNCC3)cc21 [NORFLOXACIN] ?
0.60

Sample CCCn1c(=O)c(F)cn(Cc2nc3ccccc3n2CCC)c1=O — what was its log10 of MIC?
1.81

Suppose we examine the compound CCCCCCCCCCCCn1c(=O)c(F)cn(Cc2nc3ccccc3n2CCCCCCCCCCCC)c1=O ; what log10 of MIC value has been reported?
2.71

Dear colleague, I am looking for the recorded log10 of MIC of the following compound: CCn1c(=O)c(F)cn(Cc2nc3ccccc3n2CC)c1=O
1.81

What value of log10 of MIC has been recorded for this entry: Cc1ccc(Cn2c(=O)c(F)cn(Cc3nc4ccccc4n3Cc3ccc(C)cc3)c2=O)cc1
2.71

---

Tested on: Aspergillus flavus
Assay: Antimicrobial activity against Aspergillus flavus ATCC 204304 after 24 hrs by microbroth dilution method
Type: functional
Conditions: ATCC 204304, 24 h
TEST READOUT: MIC

Some entries whose results are on file:
MOLECULE SMILES	MIC
CCCCCCCCn1c(=O)c(F)cn(Cc2nc3ccccc3n2CCCCCCCC)c1=O	512 µg/mL
O=c1c(F)cn(Cc2nc3ccccc3n2Cc2ccccc2Cl)c(=O)n1Cc1ccccc1Cl	512 µg/mL
CCCCCCCCCCCCn1c(Cn2cc(F)c(=O)[nH]c2=O)nc2ccccc21	> 512 µg/mL
CCCn1c(=O)c(F)cn(Cc2nc3ccccc3n2CCC)c1=O	64 µg/mL
CCCCCn1c(=O)c(F)cn(Cc2nc3ccccc3n2CCCCC)c1=O	> 512 µg/mL
O=c1c(F)cn(Cc2nc3ccccc3n2Cc2ccc(F)cc2)c(=O)n1Cc1ccc(F)cc1	512 µg/mL
O=c1c(F)cn(Cc2nc3ccccc3n2Cc2ccccc2)c(=O)n1Cc1ccccc1	64 µg/mL
O=c1c(F)cn(Cc2nc3ccccc3n2Cc2ccc(Cl)cc2)c(=O)n1Cc1ccc(Cl)cc1	> 512 µg/mL

State the recorded MIC for this entry: CCCCCCCCn1c(Cn2cc(F)c(=O)[nH]c2=O)nc2ccccc21
32 µg/mL

Item O=c1[nH]c(=O)n(Cc2nc3ccccc3[nH]2)cc1F has what recorded MIC?
128 µg/mL

Give its MIC value. Item: CCCn1c(Cn2cc(F)c(=O)[nH]c2=O)nc2ccccc21
32 µg/mL

Query (molecule): O=c1[nH]c(=O)n(Cc2nc3ccccc3n2Cc2cccc(F)c2)cc1F ; field requested: MIC
32 µg/mL

Quick check: MIC of O=c1c(F)cn(Cc2nc3ccccc3n2Cc2ccccc2F)c(=O)n1Cc1ccccc1F ?
> 512 µg/mL

Please give the measured MIC for this molecule: OC(Cn1cncn1)(Cn1cncn1)c1ccc(F)cc1F
256 µg/mL

Can you share its MIC? I mean this molecule: O=c1c(F)cn(Cc2nc3ccccc3n2Cc2cccc(Cl)c2)c(=O)n1Cc1cccc(Cl)c1
64 µg/mL

MIC for O=c1c(F)cn(Cc2nc3ccccc3n2Cc2ccc([N+](=O)[O-])cc2)c(=O)n1Cc1ccc([N+](=O)[O-])cc1 ?
> 512 µg/mL

MIC for Cc1ccc(Cn2c(=O)c(F)cn(Cc3nc4ccccc4n3Cc3ccc(C)cc3)c2=O)cc1 ?
> 512 µg/mL

Given the entry O=c1c(F)cn(Cc2nc3ccccc3n2Cc2cccc(F)c2)c(=O)n1Cc1cccc(F)c1 , report its measured MIC.
8 µg/mL

Quick check: MIC of COc1ccc(Cn2c(=O)c(F)cn(Cc3nc4ccccc4n3Cc3ccc(OC)cc3)c2=O)cc1 ?
32 µg/mL

Give the measured MIC of O=c1[nH]c(=O)n(Cc2nc3cc(F)ccc3[nH]2)cc1F .
128 µg/mL
